tested on: Trichoderma virens ATCC 9645; assay: growth yield (OD600) with compound + IPBC relative to untreated control; higher = less growth inhibition; conditions: compound concentration: 100 uM; IPBC concentration: 200 ng/ml; 40 h
Where a name gives a salt, the structure may show the parent alone. About 130 (10%) of roughly 1,300 compounds showed an effect of 50% or more. Shown is part of a subset that was picked to be rich in strong results.
READOUT_TYPE: growth yield (%)

{"columns": ["COMPOUND", "QUANTITATIVE_RESULT"],
 "data": [
  ["CC(=O)S[C@@H]1CC2=CC(=O)CC[C@]2(C)[C@H]2CC[C@@]3(C)[C@@H](CC[C@@]34CCC(=O)O4)[C@H]12 [Spironolactone] + CCCCNC(=O)OCC#CI [3-iodo-2-propynyl butylcarbamate (IPBC)]", 85.3],
  ["CC(C(=O)O)c1ccc(N2Cc3ccccc3C2=O)cc1 (stereo not given) [Indoprofen] + CCCCNC(=O)OCC#CI [3-iodo-2-propynyl butylcarbamate (IPBC)]", 88.8],
  ["O=c1[nH]c2ccccc2n1CCCN1CCC(n2c(=O)[nH]c3cc(Cl)ccc32)CC1 [Domperidone] + CCCCNC(=O)OCC#CI [3-iodo-2-propynyl butylcarbamate (IPBC)]", 63.5],
  ["CC(=O)OCC1=C(C(=O)O)N2C(=O)[C@@H](NC(=O)Cc3cccs3)[C@H]2SC1 [Cephalothin sodium salt] + CCCCNC(=O)OCC#CI [3-iodo-2-propynyl butylcarbamate (IPBC)]", 91.7],
  ["CCC(Cc1c(I)cc(I)c(N)c1I)C(=O)O (stereo not given) [Iopanoic acid] + CCCCNC(=O)OCC#CI [3-iodo-2-propynyl butylcarbamate (IPBC)]", 70.2]
]}
